# credit: PubChem BioAssay AID488896

inhibition listing for selected compounds.
Target: Scavenger receptor class B member 1 (Mus musculus)
Test: mouse SR-BI DiI-HDL uptake blockers – ldlA[mSR-BI] cells, fluorescence, single point, primary screen (AID 488896);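 note: 0% = median of neutral control wells and 100% = median of positive control wells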
Conditions: ldlA[mSR-BI] CHO cells, 3 h, at 12.5 µM, stronger effect = higher value
About 3,100 (0.97%) of roughly 320,000 compounds were called active. Only a selection was taken, and actives are over-represented in it overall.

Solved cases (2 shown):
>>> df
                                   compound  measured_endpoint             value
0  COc1cccc(N(CC(=O)NC2CCCC2)C(=O)Cn2nnc(-c3ccc(C)cc3)n2)c1         inhibition    73.6% (active)
1       O=C(NC1=CC(=O)c2ccccc2C1=O)c1ccccc1         inhibition  2.35% (inactive)

Task: What value of inhibition has been reported for the following compound? COc1cccc(CC(=O)Nc2ccc(-c3csc(C)n3)cc2)c1
Result: 22% (inactive)

Task: Any idea what its inhibition is? The compound is O=C(Nc1ccc(NC(=O)c2ccc3c(c2)OCO3)cc1)c1cccc(Cl)c1
Result: -14.8% (inactive)

###

Target: Scavenger receptor class B member 1 (Mus musculus)
Assay: mouse SR-BI DiI-HDL uptake blockers – ldlA[mSR-BI] cells, fluorescence, single point, primary screen (AID 488896);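 note: 0% = median of neutral control wells and 100% = median of positive control wells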
Settings: ldlA[mSR-BI] CHO cells, 3 h, at 12.5 µM, stronger effect = higher value
The whole screen tested about 320,000 compounds, of which about 3,100 (0.97%) were called active. The sample holds actives, similar compounds and a random draw of the others, so the mix is not that of the screen.
Form field: inhibition (one value per entry).
Reply numerically in %, unit not repeated.

Use these answered entries as a reference point.
                                   compound  measured_endpoint  value
0     CN(C)/N=C/c1cc(Cl)cc([N+](=O)[O-])c1O         inhibition  -14.6
1  C=CCCC(=O)Nc1nc(C)c(-c2csc(Nc3ccc(Cl)cc3)n2)s1         inhibition    104

Task: Checklist item: inhibition tested on Scavenger receptor class B member 1 (Mus musculus), entry Cc1ccc(Cn2c(C)c3cnn(CC(=O)NCCN4CCOCC4)c(=O)c3c2C)cc1 , value?
Result: 22.1

Task: Tell me reported inhibition for CCC(=O)Nc1nc(C)c(C(=O)Nc2cccc(Cl)c2)s1 , tested with Scavenger receptor class B member 1 (Mus musculus).
Result: 49.6

Task: Lab note: need inhibition with Scavenger receptor class B member 1 (Mus musculus) for entry COc1ccc(/C=C2\SC(=N)N(c3ccc(F)cc3)C2=O)cc1 , please look it up.
Result: 13.3

Task: Please tell me: inhibition of CN(C)c1ccc(C2N(C)C(=O)c3ccccc3N2C)cc1 (stereo unspecified) , system Scavenger receptor class B member 1 (Mus musculus)?
Result: -4.86

Task: Provide the documented inhibition with Scavenger receptor class B member 1 (Mus musculus) as the system for CCCCCCC(=O)Nc1nc(C)c(-c2csc(Nc3cc(Cl)ccc3OC)n2)s1
Result: 97.4

Task: Given the entry O=C(O)c1ccc(/C=N/NC(=O)c2ccc(Br)cc2)cc1 , what inhibition was observed with Scavenger receptor class B member 1 (Mus musculus)?
Result: -48.4

Task: # query: inhibition | item COC(=O)CC(CC(=O)OC)n1cccc1 | system: Scavenger receptor class B member 1 (Mus musculus)
Result: -7.62
